Tested on: UACC-62 melanoma
EXPERIMENT: NCI tumour cell line growth inhibition, 48 h
Consider the following compounds and their measured TGI readings.

                                   compound  test_result
0  Cc1ccc(C(=O)N/N=C(\N=Nc2cccc(C)c2)c2ccc(N(CCC#N)CCC#N)cc2C)cc1     > 100 µM
1  Oc1ccc2c(c1)OCC1(O)Cc3cc(O)c(O)cc3C21 (centres undefined)      41.9 µM
2    COc1ccc2nc3c(n2c1)C(=O)C(=O)c1ccccc1-3       2.9 µM

Lookup: Would you kindly share the measured TGI for O=c1[nH]c(=O)n(C2CC(O)C(CO)O2)cc1/C=C/Br (centres undefined) ?
Found: > 100 µM

Lookup: Would you kindly share the measured TGI for O=C(Nc1cc(Cl)c(Cl)cc1Cl)C(=O)C(C(=O)c1ccccc1)C1OC(=O)c2ccccc21 (centres undefined) ?
Found: > 100 µM

Lookup: Would you kindly share the measured TGI for COc1cc(-c2cc(-c3nc4ccc(F)cc4[nH]3)[nH]n2)cc(OC)c1OC ?
Found: 4.82 µM

Lookup: Would you kindly share the measured TGI for C=C(C)[C@@H]1CC[C@]2(C(N)=O)CC[C@]3(C)[C@H](CC[C@@H]4[C@@]5(C)C/C(=C/c6cccnc6)C(=O)C(C)(C)[C@@H]5CC[C@]43C)[C@@H]12 ?
Found: 29.9 µM

Lookup: Would you kindly share the measured TGI for CCCCCCC1=NOC(C(c2cc[nH]c2)N(C)[C@H](C(=O)OC)C(C)C)C1 (some centres undefined) ?
Found: > 100 µM

Lookup: Would you kindly share the measured TGI for CC1(CO)OC(n2cnc3c(N)ncnc32)C(O)C1O (centres undefined) ?
Found: > 100 µM
